# credit: patent US10543157B2

- Tested on: VEGF
- assay protocol: In-vitro cell based VEGF induction (ELISA)
- measurement context: human dermal fibroblasts, 24 hrs treatment, spent media, normalized to ATP
parameter: EC50
The reply should consist of the numeric value with the unit placed after it.

>>> observed_result("Cc1cc(CC(C)CC(C)(C)C)n(O)c(=O)c1 (centres unmarked)")
"2.1 µM"

Now consider a different compound.
Problem: Test system VEGF; read-out EC50; what value for "CCCCCCCCOc1cccc(=O)n1O" ?
Result: 13 µM
